Tested target: T1, HLA-A*02:01 (human)
T1 construct: MHC class I monomer of the UV-ligand exchange assay; also called peptide-receptive MHC molecules; MHC class I
Experimental protocol: UV peptide-exchange ELISA
Text: Candidate peptides for T cell based therapies according to the present invention were further tested for their MHC binding capacity (affinity). The individual peptide-MHC complexes were produced by UV-ligand exchange, where a UV-sensitive peptide is cleaved upon UV-irradiation, and exchanged with the peptide of interest as analyzed. Only peptide candidates that can effectively bind and stabilize the peptide-receptive MHC molecules prevent dissociation of the MHC complexes. […]
Where no end group is shown, it is not given here. [ ]: non-standard residue; d: D form. pS = N[C@@H](COP(=O)(O)O)C(=O)O
Overview of reported peptide exchange yield across a group of binders:

- Binder: "VMGDIPAAV"
  peptide exchange yield: "20 to 50%"
- Binder: "LLLEETEKQAV"
  peptide exchange yield: "50 to 75%"
- Binder: "ALVFELHYV"
  peptide exchange yield: "50 to 75%"
- Binder: "ILLNPAYDVYL"
  peptide exchange yield: "50 to 75%"
- Binder: "FLWQHVELVL"
  peptide exchange yield: "50 to 75%"
- Binder: "ILEPLNPLL"
  peptide exchange yield: "50 to 75%"
- Binder: "AMNISVPQV"
  peptide exchange yield: "50 to 75%"
- Binder: "GLDDAEYAL"
  peptide exchange yield: "20 to 50%"
- Binder: "SIIEGPIIKL"
  peptide exchange yield: "50 to 75%"
- Binder: "AIDAALTSV"
  peptide exchange yield: "50 to 75%"
- Binder: "GLKHDIARV"
  peptide exchange yield: "50 to 75%"
- Binder: "FVLDHEDGLNL"
  peptide exchange yield: "50 to 75%"
- Binder: "FVFGDENGTVSL"
  peptide exchange yield: "50 to 75%"
- Binder: "ILSQPTPSL"
  peptide exchange yield: "50 to 75%"
- Binder: "TLVPPAALISI"
  peptide exchange yield: "50 to 75%"
- Binder: "FLIQEIKTL"
  peptide exchange yield: "50 to 75%"
- Binder: "VLSHNLYTV"
  peptide exchange yield: "50 to 75%"
- Binder: "YLYQEQYFI"
  peptide exchange yield: "50 to 75%"
- Binder: "FMQDPMEVFV"
  peptide exchange yield: "50 to 75%"
- Binder: "KLDETGVAL"
  peptide exchange yield: "20 to 50%"
- Binder: "HLYPGAVTI"
  peptide exchange yield: "50 to 75%"
- Binder: "VLLSIPFVSV"
  peptide exchange yield: "50 to 75%"
- Binder: "ILTELGGFEV"
  peptide exchange yield: "50 to 75%"
- Binder: "NLWSLVAKV"
  peptide exchange yield: "50 to 75%"
- Binder: "ILQAELPSL"
  peptide exchange yield: "50 to 75%"
- Binder: "YMYEKESEL"
  peptide exchange yield: "20 to 50%"
- Binder: "VMIQHVENL"
  peptide exchange yield: "50 to 75%"
- Binder: "LLSTLHLLV"
  peptide exchange yield: "50 to 75%"
- Binder: "KLKDRLPSI"
  peptide exchange yield: "20 to 50%"
- Binder: "ALFTF[pS]PLTV [ALFTFJPLTV]"
  peptide exchange yield: "50 to 75%"
- Binder: "LLVDVEPKV"
  peptide exchange yield: "50 to 75%"
- Binder: "SVHKGFAFV"
  peptide exchange yield: "50 to 75%"
